Assay text: Kinetic solubility of the compound at pH 7.5 by shake flask method
Assay type: physicochemical
Setup conditions: buffer, read-out: Kinetic_solubility
Below, each entry is listed alongside its reported solubility kinetic.

query: Give solubility kinetic for the following compound: Cc1cc(-c2ccnc(Nc3cnn(C)c3)n2)ccc1CNC(=O)N1CC(OC(C)C)C1
result: > 30 µg/mL

query: Give solubility kinetic for the following compound: CC(C)OC1CN(C(=O)N[C@@H]2CCCCc3cc(-c4ccnc(Nc5cnn(C)c5)n4)ccc32)C1
result: > 30 µg/mL

====

Assay text: Kinetic aqueous solubility of the compound in pH 3
Type: physicochemical
Setup conditions: read-out: Kinetic_solubility
Observed property: solubility kinetic

query: Give solubility kinetic for the following molecule: Cc1c(CNC(=O)N2CC(OC(C)C)C2)ccc(-c2ccnc(Nc3cnn(C)c3)n2)c1F
result: > 10 µg/mL

query: Give solubility kinetic for the following molecule: CC(C)OC1CN(C(=O)NCc2ccc(-c3ccnc(Nc4cnn(C)c4)n3)cc2Cl)C1
result: < 30 µg/mL

query: Give solubility kinetic for the following molecule: CC(C)OC1CN(C(=O)NC2CCCc3cc(-c4ccnc(Nc5cnn(C)c5)n4)ccc32)C1 (stereo not given)
result: > 30 µg/mL

query: Give solubility kinetic for the following molecule: CC(C)OC1CN(C(=O)NCc2ccc(-c3ccnc(Nc4cnn(C)c4)n3)cc2C(F)(F)F)C1
result: < 10 µg/mL

query: Give solubility kinetic for the following molecule: Cc1cc(-c2ccnc(Nc3cnn(C)c3)n2)ccc1CNC(=O)N1CC(OC(C)C)C1
result: > 30 µg/mL
